Test system: Streptococcus pyogenes
assayName: Antimicrobial activity against Streptococcus pyogenes ATCC 176 after overnight incubation by microdilution broth susceptibility assay
Format: functional
Calls of active or inactive are those of the source. The rule behind the calls is not given here.

- chemicalSmiles: "CC(C)OC(=O)c1ccc(-n2nc(C(=O)OC(C)C)c(C(=O)c3ccccc3)c2-c2ccccc2)cc1"
  MIC: "inactive"
- chemicalSmiles: "CCNC(=O)c1ccc(-n2nc(C(=O)NCC)c(C(=O)c3ccccc3)c2-c2ccccc2)cc1"
  MIC: "inactive"
- chemicalSmiles: "O=C(O)c1ccc(N/N=C(\\c2ccccc2)c2c(-c3ccccc3)nn(-c3ccc(C(=O)O)cc3)c(=O)c2O)cc1"
  MIC: "inactive"

====

Test system: Escherichia coli
assayName: Antimicrobial activity against Escherichia coli B3704 after overnight incubation by microdilution broth susceptibility assay
Assay type: functional
observedProperty: MIC (µM)

- chemicalSmiles: "CC(C)OC(=O)c1ccc(-n2nc(C(=O)OC(C)C)c(C(=O)c3ccccc3)c2-c2ccccc2)cc1"
  MIC / µM: 129

I = O=C(NC(=O)c1ccc(-n2nc(C(=O)NC(=O)Nc3ccccc3)c(C(=O)c3ccccc3)c2-c2ccccc2)cc1)Nc1ccccc1
II = Cn1nc(-c2ccccc2)c2c(-c3ccccc3)n(-c3ccc(C(=O)O)cc3)nc2c1=O
Exercise: Could you point out whether the larger MIC belongs to I or to II ? State the label of the item chosen.
Solution: II

====

Test system: Escherichia coli
assayName: Antimicrobial activity against Escherichia coli B3704 after overnight incubation by microdilution broth susceptibility assay
Type: functional
observedProperty: MIC (µM)

- chemicalSmiles: "CCOC(=O)c1ccc(-n2nc(C(=O)OCC)c(C(=O)c3ccccc3)c2-c2ccccc2)cc1"
  observedProperty: "MIC"
  outputUnit: "µM"
  observedMeasurement: 137
- chemicalSmiles: "O=C(O)c1ccc(-n2nc(C(=O)O)c(C(=O)c3ccccc3)c2-c2ccccc2)cc1"
  observedProperty: "MIC"
  outputUnit: "µM"
  observedMeasurement: 155
- chemicalSmiles: "CCCCOC(=O)c1ccc(-n2nc(C(=O)OCCCC)c(C(=O)c3ccccc3)c2-c2ccccc2)cc1"
  observedProperty: "MIC"
  outputUnit: "µM"
  observedMeasurement: 122
- chemicalSmiles: "N#Cc1ccc(-n2nc(C#N)c(C(=O)c3ccccc3)c2-c2ccccc2)cc1"
  observedProperty: "MIC"
  outputUnit: "µM"
  observedMeasurement: 171
- chemicalSmiles: "O=C(O)c1ccc(-n2nc3c(=O)n(-c4ccc(C(=O)O)cc4)nc(-c4ccccc4)c3c2-c2ccccc2)cc1"
  observedProperty: "MIC"
  outputUnit: "µM"
  observedMeasurement: 121

====

Test system: Escherichia coli
assayName: Antimicrobial activity against Escherichia coli B3704 after overnight incubation by microdilution broth susceptibility assay
Type: functional
observedProperty: MIC (µM)

Before answering, review these 3 worked examples.
- chemicalSmiles: "CCNC(=O)c1ccc(-n2nc(C(=O)NCC)c(C(=O)c3ccccc3)c2-c2ccccc2)cc1"
  outputUnit: "µM"
  MIC: 137
- chemicalSmiles: "O=C(O)c1ccc(N/N=C(\\c2ccccc2)c2c(-c3ccccc3)nn(-c3ccc(C(=O)O)cc3)c(=O)c2O)cc1"
  outputUnit: "µM"
  MIC: 117
- chemicalSmiles: "O=C(Cl)c1ccc(-n2nc(C(=O)Cl)c(C(=O)c3ccccc3)c2-c2ccccc2)cc1"
  outputUnit: "µM"
  MIC: 142

I = O=C(N[C@H](CO)[C@H](O)c1ccc([N+](=O)[O-])cc1)C(Cl)Cl
II = O=C(NCc1ccccc1)NC(=O)c1ccc(-n2nc(C(=O)NC(=O)NCc3ccccc3)c(C(=O)c3ccccc3)c2-c2ccccc2)cc1
III = COC(=O)c1ccc(-n2nc(C(=O)OC)c(C(=O)c3ccccc3)c2-c2ccccc2)cc1
Exercise: Ranking field: MIC; order: falling. In your reply, arrange the labels in the requested order.
Solution: III, II, I
(III: 145 µM, II: 95 µM, I: 19 µM)
